Hey, just so you know, these numbers are from patent US20260209325A1.

molecular target: T1, murine pro-myostatin (mouse, UniProt O08689 25-376, biotinylated (in the SPR assay)); assay: SPR Biacore 8K, biotin-antigen captured
T1 construct: also called proGDF8 (mouse); mouse pro-myostatin
measuredMetric: kon (M⁻¹ s⁻¹)
The answer is to be given in M⁻¹ s⁻¹; state only the numeric part.

Example entries begin here.
Ab114 (antibody, human IgG4 S228P, kappa, V domains shown) VH: QVQLVQSGAEVKKPGASVKVSCKVSGGTFRSYTIHWVRQAPGKGLEWMGGMNPSSGHTIYAQKFQGRVTMTEDTSTDTAYMELSSLKSEDTAVYYCARGLDYGEGYYYYGMDVWGQGTTVTVSS VL: DIQMTQSPSSVSASVGDRVTITCRASQGISESLAWYQQKPGKAPKLLIYSASSLESGVPSRFSGSGSGTDFTLTISSLQPEDFANYYCQQGYSSPPYTFGGGTKVEIKR :: 3.31e+06
Ab105 (antibody, human IgG4 S228P, kappa, V domains shown) VH: EVQLVESGGGLVQPGGSLRLSCAASGSAFSSYGMSWVRQAPGKGLELVASIGGTGATYYPDSVKGRFTISRDNAKNSLYLQMNSLRAEDTAVYYCARDLLVRFLEWGHYYGMDVWGQGTTVTVSS VL: DIVMTQSPLSLPVTPGEPASISCRSSQSLLHSSGYNFLHWYLQKPGQSPQLLIYAASSRAPGIPDRFSGSGSGTDFTLKISRVEAEDVGVYYCMHGGQGPTFGGGTKVEIKR :: 5.99e+06
Ab106 (antibody, human IgG4 S228P, kappa, V domains shown) VH: EVQLVESGGGLVQPGGSLRLSCAASGSAFSSYGMSWVRQAPGKGLELVASINSNGGSTYYPDSVKGRFTISRDNAKNSLYLQMNSLRAEDTAVYYCARDLLVRFLEWAGYYGMDVWGQGTTVTVSS VL: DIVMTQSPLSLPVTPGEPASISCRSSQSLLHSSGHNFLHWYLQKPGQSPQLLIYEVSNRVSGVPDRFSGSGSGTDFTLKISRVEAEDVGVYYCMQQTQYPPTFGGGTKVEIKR :: 1.96e+06

Write down kon measured for item Ab109 (antibody, human IgG4 S228P, kappa, V domains shown, human IgG4 in the EM experiment; also called Ab109 Human IgG4) VH: EVQLVESGGGLVQPGGSLRLSCAASGFTFSSYGMSWVRQAPGKGLELVASFTGSGGTYYPDSVKGRFTISRDNAKNSLYLQMNSLRAEDTAVYYCARDLLIRFLEWSHYYGMDVWGQGTTVTVSS VL: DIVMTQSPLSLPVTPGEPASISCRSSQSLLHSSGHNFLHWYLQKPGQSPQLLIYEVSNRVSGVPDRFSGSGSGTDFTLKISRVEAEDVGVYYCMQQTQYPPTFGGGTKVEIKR
6.81e+06
